Listed here are compounds together with their documented growth inhibition.
Test Details: NCI Yeast Anticancer Drug Screen. Data for the rad50 strain (AID 155);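 note: 0% = growth of vehicle-only cultures of the same strain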
Test Settings: S. cerevisiae rad50 strain growth inhibition; at 50.0 µM; stronger effect = higher value
The panel holds about 79,000 compounds, 15% with a hit somewhere; the sample as a whole holds those more often.
Readout Name: growth inhibition (%)

Compound: CC(=O)OC1CC2CC3C(C)CCC3(C2(C)C)C1(C)O (configuration not stated)
Value Observed: -12.9

Compound: Cc1cccc(C2=N/C(=C\c3ccc4c(c3)OC(O)O4)C(=O)O2)c1 (configuration not stated)
Value Observed: -1.9

Compound: CC(=O)NCC1OCC2OC(C)(C)OC12 (configuration not stated)
Value Observed: 3.35

Compound: CCOC(=O)C1CC(=O)c2cc(OC)c(OC)cc2C1c1ccc(OC)c(OC)c1 (configuration not stated)
Value Observed: 1.85

Compound: Cc1cc(C)nc(NS(=O)(=O)c2ccc(Nc3c4ccccc4nc4c(C(=O)Nc5ccc(S(=O)(=O)N=C(N)N)cc5)cccc34)cc2)n1
Value Observed: 24.1

Compound: CCOC(=O)C1=C(C)N(NC(N)=O)C2(N)N(NC(N)=O)C(C)=C(C(=O)OCC)C12C#N (configuration not stated)
Value Observed: -6.95

Compound: CCn1c(=O)c2nc(SC)sc2n(-c2ccc(C)cc2)c1=O
Value Observed: -21.2

Compound: Cc1cc(=O)n(-c2c(C)cccc2Cl)c(/C=C(\O)c2ccncc2)n1
Value Observed: 4.25

Compound: Cc1nc(-c2nc(C)c(C(=O)NNC(=O)C[n+]3ccccc3)s2)sc1C(=O)NNC(=O)C[n+]1ccccc1
Value Observed: 21.9

Compound: CC(=O)c1nc2ccccc2n1CC(=O)c1ccc([N+](=O)[O-])cc1
Value Observed: -0.65

Compound: CC1C=CC(C)S(=O)N1C(=O)Cc1ccccc1 (configuration not stated)
Value Observed: -2.6

Compound: N#Cc1cccc(N(C(=O)c2ccccc2)c2ccccc2)n1
Value Observed: 4.35

Compound: O=C(CSC1=NCCN1)c1ccccc1
Value Observed: -17.9

Compound: CC(C)(C)N(C/C=C/CN(Cc1ccccc1)Cc1ccccc1)C(C)(C)C
Value Observed: 32.8

Compound: CC(=O)C(C)(C)O
Value Observed: 45.4

Compound: c1ccc(C2c3ccccc3-c3ncnc(N4CCCCC4)c32)cc1 (configuration not stated)
Value Observed: 9.4

Compound: Cn1c(N)c(C(=O)/C=C/c2ccccc2)c(=O)n(C)c1=O
Value Observed: 11.4

Compound: O=C(CC[N+](=O)[O-])OCC1OC(OC(=O)CC[N+](=O)[O-])C(O)C(O)C1O (configuration not stated)
Value Observed: 23

Compound: CCCCCN(C=O)c1ccccc1
Value Observed: -4.25

Compound: CN(C)Cc1cc(O)c(O)c(CN(C)C)c1
Value Observed: -16.6

Compound: Cc1ccc(-c2c3nc(c(-c4ccc(C)cc4)c4ccc([nH]4)c(-c4ccc(OCC5COC(C)(C)O5)cc4)c4nc(c(-c5ccc(C)cc5)c5ccc2[nH]5)C=C4)C=C3)cc1 (configuration not stated)
Value Observed: -58.3

Compound: CC1(C(N)=O)CCC1
Value Observed: 1.8

====

Test Details: NCI Yeast Anticancer Drug Screen. Data for the rad50 strain (AID 155);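 note: 0% = growth of vehicle-only cultures of the same strain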
Test Settings: S. cerevisiae rad50 strain growth inhibition; at 50.0 µM; stronger effect = higher value
This is part of a sample that, as a whole, favours compounds with a hit. Of some 79,000 tested, about 15% had one in any assay.
Readout Name: growth inhibition (%)

Compound: O=C(CCCn1cnc([N+](=O)[O-])n1)NCCCn1ccnc1[N+](=O)[O-]
Readout Name: growth inhibition
Value Observed: -26.2

Compound: CCOc1nc(C(=O)O)cc2ccsc12
Readout Name: growth inhibition
Value Observed: 1.15

Compound: COc1cccc(C2c3cc4c(cc3OC(C)(O)C2C)OCO4)c1OC (configuration not stated)
Readout Name: growth inhibition
Value Observed: 22.6

Compound: COc1cccc(-c2cc(=O)c3cccc(CC(=O)O)c3o2)c1
Readout Name: growth inhibition
Value Observed: 5.9

Compound: Cc1cc(N)c(NC2OC(CO)C(O)C2O)cc1C (configuration not stated)
Readout Name: growth inhibition
Value Observed: -25.1

Compound: CCCOC(=O)CNC(=O)OC(C)(C)C
Readout Name: growth inhibition
Value Observed: 17.6

Compound: CCOC(=O)C(CC)(C(=O)OCC)C(C)C
Readout Name: growth inhibition
Value Observed: 15.6

Compound: CCCCCCC(=O)CC1(C(=O)OC)NC(=S)NC(=O)C1C#N (configuration not stated)
Readout Name: growth inhibition
Value Observed: 18.1

Compound: CCCCCCCCCCCO/N=C\c1c2c(O)c3c(O)c(C)c4c(c3c1O)C(=O)C(C)(O/C=C\C(OC)C(C)C(OC(C)=O)C(C)C(O)C(C)C(O)C(C)/C=C\C=C(\C)C(=O)N2)O4 (configuration not stated)
Readout Name: growth inhibition
Value Observed: -4.75

Compound: c1ccc(-c2c[s+]cc(-c3ccccc3)c2)cc1
Readout Name: growth inhibition
Value Observed: 98.7

Compound: CC1=CC(=O)CC(C)(C)C1(O)/C=C/C(C)=C/C(=O)O (configuration not stated)
Readout Name: growth inhibition
Value Observed: -11.6

Compound: CCCC(CCC(C)=O)[N+](=O)[O-] (configuration not stated)
Readout Name: growth inhibition
Value Observed: -9.05

Compound: Cc1ccccc1N=CC(C=O)[N+](=O)[O-] (configuration not stated)
Readout Name: growth inhibition
Value Observed: -1.65

Compound: Cc1cc(C2(c3cc(C)c(O)c4ncccc34)OC(=O)c3ccccc32)c2cccnc2c1O
Readout Name: growth inhibition
Value Observed: 84.6

Compound: N/N=C1\CC(=O)NC(=O)N1
Readout Name: growth inhibition
Value Observed: -2.15

Compound: CCOc1ccc(/C=C2/C(=O)N(/C=C3/C(=O)Oc4ccccc4C3=O)C(=NC(C)=O)N2C)cc1
Readout Name: growth inhibition
Value Observed: 8.75

Compound: C/C(=N\NC(N)=S)C(CN(CC(C)C)CC(C)C)C(=O)Nc1ccc(C)cc1C (configuration not stated)
Readout Name: growth inhibition
Value Observed: -18.7

Compound: O=C1c2ccccc2C2(O)NC(=S)N(c3ccccc3)C12O (configuration not stated)
Readout Name: growth inhibition
Value Observed: -14.2

Compound: O=C(CCCCCCCCC(=O)OCC1OC(n2cnc3c(=O)[nH]cnc32)C(O)C1O)OCC1OC(n2cnc3c(=O)[nH]cnc32)C(O)C1O (configuration not stated)
Readout Name: growth inhibition
Value Observed: -47.5

Compound: CC(=O)CC(O)(C(F)(F)Cl)C(F)(Cl)Cl (configuration not stated)
Readout Name: growth inhibition
Value Observed: -35.5

Compound: O=C(O)c1cc(Cl)ccc1[N+](=O)[O-]
Readout Name: growth inhibition
Value Observed: 18.6

Compound: C=C1C(=O)O[C@H]2C[C@@H]1C(=O)C/C(C)=C/CC/C(C)=C/CC[C@@]2(C)OCSC
Readout Name: growth inhibition
Value Observed: 18.9
